biological target: Mu-type opioid receptor (Cavia porcellus); test: Inhibition of electrically evoked contractions in Guinea pig ileum
Sequence (P97266 whole entry): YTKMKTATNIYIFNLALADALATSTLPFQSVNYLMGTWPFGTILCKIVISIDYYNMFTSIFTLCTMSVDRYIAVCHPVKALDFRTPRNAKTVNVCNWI
Positions of bridges follow the written chain, without caps; N, C: chain ends. Non-standard residues stand in square brackets, D forms with d. Residues, ends and D or L forms follow the SMILES beside them. Aic = NC1(C(=O)O)Cc2ccccc2C1
Entries annotated with measured pIC50
Entry type: numeric. Quantity: pIC50, the -log10 of concentration in molar units.

Worked cases, answers included:
CC(C)[C@H](NC(=O)[C@@H]1CCC(=O)NCCCC[C@@H](NC(=O)[C@@H](N)Cc2ccc(O)cc2)C(=O)N[C@@H](Cc2ccccc2)C(=O)N1)C(=O)N[C@H](C(=O)NCC(N)=O)C(C)C | 6.99
CC(C)[C@@H]1NC(=O)[C@@H](NC(=O)[C@H](Cc2ccccc2)NC(=O)CNC(=O)[C@@H](N)Cc2ccc(O)cc2)CCC(=O)NCCCC[C@@H](C(N)=O)NC(=O)[C@H](C(C)C)NC1=O (H-YGFEVVK-NH2; lactam 4-7) | 5.41
CSCC[C@H](NC(=O)[C@H](CC(C)C)NC(=O)[C@H](Cc1cnc[nH]1)NC(=O)[C@H](Cc1ccccc1)NC(=O)[C@@H](CCSC)NC(=O)[C@@H](N)Cc1ccc(O)cc1)C(=O)N[C@@H](CC(=O)O)C(N)=O (stereo in doubt; 7) [DELTORPHIN A] | 5.35

Specify measured pIC50 for "CC(C)[C@H](NC(=O)[C@H](CC(=O)O)NC(=O)[C@@H](Cc1ccccc1)NC(=O)[C@@H](C)NC(=O)[C@@H](N)Cc1ccc(O)cc1)C(=O)N[C@H](C(=O)NCC(N)=O)C(C)C" .
4.92

Specify measured pIC50 for "CC(C)[C@@H]1NC(=O)[C@H](CC(=O)O)NC(=O)[C@H](Cc2ccccc2)NC(=O)[C@H](NC(=O)[C@@H](N)Cc2ccc(O)cc2)CCCCNC(=O)CC[C@@H](C(N)=O)NC(=O)[C@H](C(C)C)NC1=O" .
6.42

Specify measured pIC50 for "CC(C)[C@@H]1NC(=O)[C@@H](NC(=O)[C@H](Cc2ccccc2)NC(=O)[C@@H](C)NC(=O)[C@@H](N)Cc2ccc(O)cc2)CC(=O)NCCC[C@@H](C(N)=O)NC(=O)[C@H](C(C)C)NC1=O" .
6.60

Specify measured pIC50 for CC(C)[C@H](NC(=O)[C@H](CC(=O)O)NC(=O)C1(NC(=O)[C@@H](C)NC(=O)[C@@H](N)Cc2ccc(O)cc2)CCc2ccccc2C1)C(=O)N[C@H](C(=O)NCC(N)=O)C(C)C (stereo in doubt; 2) .
5.74

Specify measured pIC50 for "CCCC[C@H](NC(=O)[C@H](CC(C)C)NC(=O)[C@H](Cc1cnc[nH]1)NC(=O)[C@H](Cc1ccccc1)NC(=O)[C@@H](CCCC)NC(=O)[C@@H](N)Cc1ccc(O)cc1)C(=O)N[C@@H](CC(=O)O)C(N)=O" .
6.62

Specify measured pIC50 for CC(C)[C@H](NC(=O)[C@H](CC(=O)O)NC(=O)C1(NC(=O)[C@@H](C)NC(=O)[C@@H](N)Cc2ccc(O)cc2)Cc2ccccc2C1)C(=O)N[C@H](C(=O)NCC(N)=O)C(C)C (H-Y[dA][Aic]DVVG-NH2) .
6.54

---

biological target: Delta-type opioid receptor (Mus musculus, UniProt P32300); experiment: Inhibition of electrically evoked contractions in mouse vas deferens; format: functional
Sequence (P32300 whole entry): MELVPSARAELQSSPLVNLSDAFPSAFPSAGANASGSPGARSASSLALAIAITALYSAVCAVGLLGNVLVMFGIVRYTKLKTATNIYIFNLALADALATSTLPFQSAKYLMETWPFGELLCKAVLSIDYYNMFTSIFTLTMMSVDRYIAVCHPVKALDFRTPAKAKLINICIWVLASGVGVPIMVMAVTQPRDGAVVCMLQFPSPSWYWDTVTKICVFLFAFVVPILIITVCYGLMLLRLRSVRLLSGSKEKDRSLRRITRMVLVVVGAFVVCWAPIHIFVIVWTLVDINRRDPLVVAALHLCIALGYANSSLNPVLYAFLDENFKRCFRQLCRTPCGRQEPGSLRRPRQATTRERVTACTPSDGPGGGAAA
Positions of bridges follow the written chain, without caps; N, C: chain ends. Non-standard residues stand in square brackets, D forms with d. Residues, ends and D or L forms follow the SMILES beside them. Tic = O=C(O)[C@@H]1Cc2ccccc2CN1; Aic = NC1(C(=O)O)Cc2ccccc2C1
Entries annotated with measured pIC50
Entry type: numeric. Quantity: pIC50, the -log10 of concentration in molar units.

CC(C)[C@@H]1NC(=O)[C@@H](NC(=O)[C@H](Cc2ccccc2)NC(=O)[C@@H](C)NC(=O)[C@@H](N)Cc2ccc(O)cc2)CC(=O)NCCC[C@@H](C(N)=O)NC(=O)[C@H](C(C)C)NC1=O | 7.04

Specify measured pIC50 for CSCC[C@H](NC(=O)[C@H](CC(C)C)NC(=O)[C@H](Cc1cnc[nH]1)NC(=O)[C@H](Cc1ccccc1)NC(=O)[C@@H](CCSC)NC(=O)[C@@H](N)Cc1ccc(O)cc1)C(=O)N[C@@H](CC(=O)O)C(N)=O (stereo in doubt; 12) [DELTORPHIN A] .
9.16

Specify measured pIC50 for CC(C)[C@@H]1NC(=O)[C@@H](NC(=O)[C@H](Cc2ccccc2)NC(=O)CNC(=O)[C@@H](N)Cc2ccc(O)cc2)CCC(=O)NCCCC[C@@H](C(N)=O)NC(=O)[C@H](C(C)C)NC1=O (H-YGFEVVK-NH2; lactam 4-7) .
6.04

Specify measured pIC50 for CC(C)[C@H](NC(=O)[C@H](CC(=O)O)NC(=O)[C@@H]1Cc2ccccc2CN1C(=O)[C@@H](C)NC(=O)[C@@H](N)Cc1ccc(O)cc1)C(=O)N[C@H](C(=O)NCC(N)=O)C(C)C (H-Y[dA][Tic]DVVG-NH2) .
6.32

Specify measured pIC50 for CC(C)[C@H](NC(=O)[C@H](CC(=O)O)NC(=O)C1(NC(=O)[C@@H](C)NC(=O)[C@@H](N)Cc2ccc(O)cc2)CCc2ccccc2C1)C(=O)N[C@H](C(=O)NCC(N)=O)C(C)C (stereo in doubt; 2) .
9.94

Specify measured pIC50 for CC(C)[C@H](NC(=O)[C@H](CC(=O)O)NC(=O)C1(NC(=O)[C@@H](C)NC(=O)[C@@H](N)Cc2ccc(O)cc2)Cc2ccccc2C1)C(=O)N[C@H](C(=O)NCC(N)=O)C(C)C (H-Y[dA][Aic]DVVG-NH2) .
10.10

Specify measured pIC50 for "CC(C)[C@@H]1NC(=O)[C@H](CC(=O)O)NC(=O)[C@H](Cc2ccccc2)NC(=O)[C@H](NC(=O)[C@@H](N)Cc2ccc(O)cc2)CCCCNC(=O)CC[C@@H](C(N)=O)NC(=O)[C@H](C(C)C)NC1=O" .
7.76

Specify measured pIC50 for CC(C)[C@H](NC(=O)[C@H](CC(=O)O)NC(=O)[C@H](Cc1ccccc1)NC(=O)[C@@H]1Cc2ccccc2CN1C(=O)[C@@H](N)Cc1ccc(O)cc1)C(=O)N[C@H](C(=O)NCC(N)=O)C(C)C (H-Y[Tic]FDVVG-NH2) .
7.64
